- SYSTEM: T1, E. coli DnaK (Escherichia coli, UniProt P0A6Y8 1-638)
- T1 construct: source: E. coli (DE3) Rosetta pLysS, purified (IMAC, TEV cleavage, second IMAC)
- T1 sequence (P0A6Y8 1-638, tags or fused parts left off): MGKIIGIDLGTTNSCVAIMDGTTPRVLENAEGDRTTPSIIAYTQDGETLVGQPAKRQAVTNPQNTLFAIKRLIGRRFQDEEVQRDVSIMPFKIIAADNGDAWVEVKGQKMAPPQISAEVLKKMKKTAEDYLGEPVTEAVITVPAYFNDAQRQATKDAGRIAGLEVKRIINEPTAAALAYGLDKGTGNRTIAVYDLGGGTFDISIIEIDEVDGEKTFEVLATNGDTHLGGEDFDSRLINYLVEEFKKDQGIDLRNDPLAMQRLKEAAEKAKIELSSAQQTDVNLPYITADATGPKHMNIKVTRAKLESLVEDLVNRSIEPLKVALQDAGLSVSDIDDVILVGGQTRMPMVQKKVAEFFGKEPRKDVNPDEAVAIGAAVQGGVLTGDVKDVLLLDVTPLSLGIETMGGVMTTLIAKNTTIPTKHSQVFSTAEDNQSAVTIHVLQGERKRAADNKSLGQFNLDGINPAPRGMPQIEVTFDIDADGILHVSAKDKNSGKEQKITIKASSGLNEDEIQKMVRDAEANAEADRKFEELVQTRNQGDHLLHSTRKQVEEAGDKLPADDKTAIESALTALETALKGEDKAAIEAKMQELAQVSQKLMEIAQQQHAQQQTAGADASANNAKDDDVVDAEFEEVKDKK
- METHOD: fluorescence polarisation; direct titration: protein serially diluted twofold in 23 steps, Cf-labeled peptide added (20 µL of 40 nmol/L to 20 µL); FP-buffer 20 mmol/L Tris-HCl, 150 mmol/L KCl, 5 mmol/L MgCl2, 1 mmol/L NaN3, 2 mmol/L DTT, pH 7.5; 2 h, 28°C, dark
- CONDITION DESCRIPTION: both partners purified
Ends that are not written are not given here. Cf = 5(6)-carboxyfluorescein label
RECORDED METRIC: Kd (nM)
Numeric only. Scale: nM

Query string: Dear colleague, I am looking for the recorded Kd of the following binder: Cf-RPDKPRPYLPRPRPPRPVR (also called 5(6)-carboxyfluorescein-labeled ARV-1502; source: synthetic peptide, in-house (Fmoc/tBu chemistry on Rink amide resin), RP-HPLC purified) [Cf-ARV-1502]
Result string: 200
